Would you kindly list interaction score for each of these binders?
Target: T1, 4H462-bN
T1 chain: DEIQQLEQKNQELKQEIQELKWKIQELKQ
Experiment: two-hybrid library CCNG1;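 note: natural log of median RNA to DNA barcode read ratio; higher means stronger binding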
Give the figure by itself; no unit, no explanation.

Record summary for DKIQQLKQEIQELKQKIQELKWENQELEQ [4H2667-bN] : reported interaction score = -1.28

For DKIQQLKQENQELEQEIQELKWEIQELEQ [4H2697-bN] the binder record lists interaction score as 1.31

The binder listed as DKNQQLKQEIQELEQENQELEWKIQELKQ [4H3606-bN] has a reported interaction score of -0.288

Form field interaction score, entry DKNQQLEQEIQELKQKNQELEWKIQELEQ [4H3189-bN] : -0.731

Value of measured interaction score for the entry DKNAQLKQENAELKQEIAELEWKIAQLKQ [4H3782-bA] : 1.22

Memo: DKNQQLKQKIQELEQEIQELEWENQELEQ [4H3843-bN] , reported interaction score: -0.816

Recorded result, DEIQQLEQKIQELKQKNQELEWEIQELKQ [4H370-bN] , interaction score: -1.49
